Provide the recorded IC50 for the entries that follow.
Target under test: Interleukin-1 receptor-associated kinase 4 (Homo sapiens)
Sequence (Q9NWZ3 whole entry, the tested form may be a part): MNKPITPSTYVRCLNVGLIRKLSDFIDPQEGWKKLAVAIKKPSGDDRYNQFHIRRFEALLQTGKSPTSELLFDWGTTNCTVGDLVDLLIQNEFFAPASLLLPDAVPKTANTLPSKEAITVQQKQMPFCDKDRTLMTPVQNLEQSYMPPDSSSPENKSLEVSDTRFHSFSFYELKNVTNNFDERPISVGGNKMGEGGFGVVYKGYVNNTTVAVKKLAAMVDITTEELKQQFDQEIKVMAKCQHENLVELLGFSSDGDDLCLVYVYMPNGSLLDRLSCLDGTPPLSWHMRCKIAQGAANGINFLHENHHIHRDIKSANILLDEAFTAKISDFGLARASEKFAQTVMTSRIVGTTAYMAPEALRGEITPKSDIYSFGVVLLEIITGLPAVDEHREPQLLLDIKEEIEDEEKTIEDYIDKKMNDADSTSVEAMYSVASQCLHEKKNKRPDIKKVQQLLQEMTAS
Method summary: Inhibition of N-terminal GST-fused full-length human IRAK4 (1 to 460 amino acids) assessed as reduction in phosphorylated substrates by Caliper assay
One number for each entry, in nM.

- Smiles string: "CN(C)[C@H]1CC[C@H](Nc2ncnc3[nH]cc(F)c23)CC1"
  Target under test: "Interleukin-1 receptor-associated kinase 4 (Homo sapiens)"
  IC50 [nM]: 100
- Smiles string: "CN(C)[C@H]1CC[C@H](Nc2nc(Nc3ccccc3)nc3[nH]ccc23)CC1"
  Target under test: "Interleukin-1 receptor-associated kinase 4 (Homo sapiens)"
  IC50 [nM]: 100

Continue with the molecule presented below.
Input: Form field: IC50 recorded for CN(C)[C@H]1CC[C@H](Nc2ncnc3[nH]cc(C#N)c23)CC1 with Interleukin-1 receptor-associated kinase 4 (Homo sapiens) (enter value)
Output: 100

---

Provide the recorded pIC50 for the entries that follow.
Target under test: Interleukin-1 receptor-associated kinase 4 (Homo sapiens)
Method summary: Inhibition of IRAK4 (unknown origin) by fluorescence polarization based kinase assay
Numbers only, as −log10 of the molar value.

Example cases with answers are listed next.
- Compound: "Cc1cc(Nc2ncc(-c3nc4ccccc4s3)c(NC3C[C@H](CO)[C@@H](O)[C@H]3O)n2)cc(C)n1 (stereo partly drawn)"
  Experimental endpoint: "pIC50"
  Result: 9.49
- Compound: "CN1CCN(c2cccc(Nc3ncc(-c4nc5ccccc5s4)c(NC4C[C@H](CO)[C@@H](O)[C@H]4O)n3)c2)CC1 (stereo partly drawn)"
  Experimental endpoint: "pIC50"
  Result: 8.59

Continue with the compound presented below.
Input: Given the compound Cc1cc(Nc2ncc(-c3nc4ccccc4s3)c(NC3C[C@H](C(C)(C)O)[C@@H](O)[C@H]3O)n2)cc(C)n1 (stereo partly drawn) , what is its reported pIC50?
Output: 8.66

---

Target under test: Interleukin-1 receptor-associated kinase 1 (Homo sapiens, UniProt P51617)
Method summary: Inhibition of IRAK1 (unknown origin) assessed as reduction in biotin tagged phosphorylated peptide substrate1
Sequence (P51617 whole entry, looked up): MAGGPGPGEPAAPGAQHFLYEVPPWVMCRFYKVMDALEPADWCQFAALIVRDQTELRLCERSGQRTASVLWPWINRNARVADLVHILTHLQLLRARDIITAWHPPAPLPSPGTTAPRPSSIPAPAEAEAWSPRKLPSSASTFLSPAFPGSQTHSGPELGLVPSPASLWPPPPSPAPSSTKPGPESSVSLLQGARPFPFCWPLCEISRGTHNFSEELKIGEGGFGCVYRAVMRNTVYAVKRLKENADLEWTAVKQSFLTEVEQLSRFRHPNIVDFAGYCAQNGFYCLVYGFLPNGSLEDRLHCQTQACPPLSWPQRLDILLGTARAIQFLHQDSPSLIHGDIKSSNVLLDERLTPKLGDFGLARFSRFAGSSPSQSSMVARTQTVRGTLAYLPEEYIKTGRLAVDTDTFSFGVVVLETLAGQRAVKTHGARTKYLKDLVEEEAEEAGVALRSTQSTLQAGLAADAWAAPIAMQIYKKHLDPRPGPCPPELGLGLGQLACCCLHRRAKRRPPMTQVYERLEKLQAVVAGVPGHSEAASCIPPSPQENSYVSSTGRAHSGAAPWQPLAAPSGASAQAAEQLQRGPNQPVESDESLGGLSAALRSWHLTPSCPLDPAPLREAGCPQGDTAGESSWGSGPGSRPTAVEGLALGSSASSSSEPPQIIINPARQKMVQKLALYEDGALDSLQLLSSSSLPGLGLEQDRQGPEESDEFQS
Experimental endpoint: IC50

- Smiles string: "Cn1cc(-c2cccc(-c3ncc(-c4cnn([C@@H]5CCCN(S(C)(=O)=O)C5)c4)cn3)c2)cn1"
  IC50: "< 100 nM"

Input: Given the compound CC(=O)N1CCC[C@@H](n2cc(-c3cnc(-c4cccc(-c5cnn(C)c5)c4)nc3)cn2)C1 , what is its reported IC50?
Output: < 100 nM

---

Target under test: UniProt:P51617
Method summary: Inhibition of IRAK1 (unknown origin)
Sequence (P51617 whole entry): as the sequence (P51617 whole entry, looked up) above
Experimental endpoint: pIC50
Numbers only, as −log10 of the molar value.

- Smiles string: "COc1cc2ncccc2cc1NC(=O)c1csc2cnc(N(C)CCN)nc12"
  pIC50: 6.01

Continue with the compound presented below.
Input: Given the compound NCC1CCN(c2ccc(Cl)cc2NC(=O)c2cnn3cc(O)cnc23)CC1 , what is its reported pIC50?
Output: 7.26

---

Tested on: PBMC
Method summary: Inhibition of lipoteichoic acid-induced IL6 production in human PBMC incubated for 30 mins by ELISA method
Assay type: functional, cell-based
Recorded conditions: 0.5 h
Experimental endpoint: EC50 (µM)
Answers are plain numbers, in µM.

Input: Given the molecule CNC(=O)[C@H]1CC[C@H](NC(=O)c2cnc(Nc3ccc4ncsc4n3)cc2NC2CCOCC2)CC1 , what is its reported EC50?
Output: 0.028
